Each item that follows carries a reported EC50.
# Tested on: L. major-luc promastigotes
# PROCEDURE_TEXT: Luciferase assay, viability of L. major-luc promastigotes
# Format: cell-based, Leishmania major
# TEST_CONDITIONS: Leishmania major, 72 h, 72 h at 28 °C, 2 × 10^6 promastigotes per mL, luciferase activity
Kindly answer with a numeric value in µM, unit omitted.

compound_structure_string=CCOC(=O)c1c(NC(=O)c2ccc(F)c(C(F)(F)F)c2)sc2c1CC(C)(C)NC2(C)C numeric_result=0.78
compound_structure_string=COC(=O)c1c(NC(=O)c2ccccc2C(F)(F)F)sc2c1CC(C)(C)NC2(C)C numeric_result=5.5
compound_structure_string=CCOC(=O)c1c(NC(=O)c2ccccc2C(F)(F)F)sc2c1CC(C)(C)NC2(C)C numeric_result=5.98

Now consider the entry below.
Ask: Given the compound `COC(=O)c1c(NC(=O)c2ccc(F)c(C(F)(F)F)c2)sc2c1CC(C)(C)NC2(C)C` , what is its reported EC50?
Result: 3.05

These entries and their values trace back to paper PMC6100043.
